Test system: SW13 (Other Solid Carcinomas);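 note: after 72 h of two-drug dosing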
experimental.details: Bliss excess, mean over the matrix (fraction); higher = more synergy
// reported Bliss excess per item
Could you respond with only the numeric value?

Sample CC1(C)CCC(CN2CCN(c3ccc(C(=O)NS(=O)(=O)c4ccc(NCC5CCOCC5)c([N+](=O)[O-])c4)c(Oc4cnc5[nH]ccc5c4)c3)CC2)=C(c2ccc(Cl)cc2)C1 [Venetoclax] + COc1cc(Nc2ncc3c(n2)-c2ccc(Cl)cc2C(c2c(F)cccc2OC)=NC3)ccc1C(=O)O [Alisertib] (first compound max 1 µM, 7x7, partner max 10 µM) — what was its Bliss excess?
0.0421

Give its Bliss excess value. Item: C=CCn1c(=O)c2cnc(Nc3ccc(N4CCN(C)CC4)cc3)nc2n1-c1cccc(C(C)(C)O)n1 [AZD1775] + C1CN(CCC1(C(=O)N[C@@H](CCO)C2=CC=C(C=C2)Cl)N)C3=NC=NC4=C3C=CN4 [Capivasertib] (first compound max 3 µM, partner max 3 µM)
-0.016
